Target: SMARCA2 (Homo sapiens)
Sequence (P51531 whole entry): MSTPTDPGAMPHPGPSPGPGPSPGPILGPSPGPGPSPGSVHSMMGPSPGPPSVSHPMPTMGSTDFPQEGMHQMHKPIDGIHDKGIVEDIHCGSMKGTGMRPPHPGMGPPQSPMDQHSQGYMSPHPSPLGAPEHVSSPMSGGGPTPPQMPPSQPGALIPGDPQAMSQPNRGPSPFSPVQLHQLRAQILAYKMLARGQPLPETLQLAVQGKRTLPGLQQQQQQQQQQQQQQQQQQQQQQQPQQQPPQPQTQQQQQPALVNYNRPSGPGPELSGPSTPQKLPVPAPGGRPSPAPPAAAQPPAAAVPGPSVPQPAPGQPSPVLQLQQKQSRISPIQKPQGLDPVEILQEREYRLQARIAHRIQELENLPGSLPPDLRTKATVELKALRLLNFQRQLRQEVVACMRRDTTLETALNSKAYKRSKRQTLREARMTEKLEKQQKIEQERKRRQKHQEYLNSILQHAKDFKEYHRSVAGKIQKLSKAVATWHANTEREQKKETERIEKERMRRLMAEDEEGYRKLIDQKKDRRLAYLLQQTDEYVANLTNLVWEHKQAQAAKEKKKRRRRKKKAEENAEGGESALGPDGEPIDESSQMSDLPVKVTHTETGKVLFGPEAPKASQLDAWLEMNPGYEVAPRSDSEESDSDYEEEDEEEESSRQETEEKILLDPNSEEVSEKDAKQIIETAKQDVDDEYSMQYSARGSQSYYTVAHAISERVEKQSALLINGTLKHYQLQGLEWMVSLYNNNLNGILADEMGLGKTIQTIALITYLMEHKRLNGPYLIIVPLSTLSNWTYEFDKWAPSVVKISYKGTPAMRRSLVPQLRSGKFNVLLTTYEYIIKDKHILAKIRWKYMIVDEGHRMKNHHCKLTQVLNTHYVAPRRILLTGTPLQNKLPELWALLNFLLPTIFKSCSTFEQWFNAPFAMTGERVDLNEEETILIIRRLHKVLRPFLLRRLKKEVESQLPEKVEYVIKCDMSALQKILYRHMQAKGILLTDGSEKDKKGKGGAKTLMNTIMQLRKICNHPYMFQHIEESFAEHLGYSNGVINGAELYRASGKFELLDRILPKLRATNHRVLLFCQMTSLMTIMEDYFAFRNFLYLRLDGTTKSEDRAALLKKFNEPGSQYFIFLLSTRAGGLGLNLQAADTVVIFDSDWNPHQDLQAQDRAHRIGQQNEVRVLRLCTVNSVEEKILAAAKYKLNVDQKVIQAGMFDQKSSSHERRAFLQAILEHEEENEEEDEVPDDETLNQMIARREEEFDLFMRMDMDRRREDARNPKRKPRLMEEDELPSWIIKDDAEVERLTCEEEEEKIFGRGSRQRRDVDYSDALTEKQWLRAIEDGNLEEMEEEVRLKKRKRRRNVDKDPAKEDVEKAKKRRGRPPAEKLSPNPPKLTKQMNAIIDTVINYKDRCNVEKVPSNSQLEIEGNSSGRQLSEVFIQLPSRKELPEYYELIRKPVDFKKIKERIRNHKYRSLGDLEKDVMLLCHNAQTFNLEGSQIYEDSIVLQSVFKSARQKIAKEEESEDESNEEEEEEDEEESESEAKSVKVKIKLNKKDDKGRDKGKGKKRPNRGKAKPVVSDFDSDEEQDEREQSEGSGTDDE
Assay: SMARCA2 degradation in HeLa cells (Western blot)
Format: cell-based
Parameters: endogenous in cells
Details: 1 nM, 4 hours
Protocol: Test Example 10 Degradation rate (%) of SMARCA2/4 by the PROTAC compounds of the present invention in HeLa cells and SW1573 cells HeLa cells were seeded at 1.2 x 10^5 cells/well in a 6-well plate. […] After 4 hours, cells were harvested, the culture medium was aspirated, and the cells were rinsed once with 1 mL/well PBS. […] After lysis and centrifugation, total protein extracts were obtained, and protein concentration in the extracts was determined by BCA assay. […]
READOUT_NAME: Degradation rate of SMARCA2 in HeLa cells (%)
Reply with just the number (in %).

COMPOUND	RECORDED_NUMBER
Nc1nnc(-c2ccccc2O)cc1C#CC1CCC2(CC1)CC(N1CCC3(CCc4ccc(NC5CCC(=O)NC5=O)cc4O3)CC1)C2 (centres unmarked)	-10

Exam item: // fetch SMARCA2 (Homo sapiens) Degradation rate of SMARCA2 in HeLa cells (%) for Nc1nnc(-c2ccccc2O)cc1C#CC1CCC2(CC1)CC(N1CCC3(CC1)Cc1ccc(NC4CCC(=O)NC4=O)cc1O3)C2 (centres unmarked)
Marked response: 10

Exam item: // fetch SMARCA2 (Homo sapiens) Degradation rate of SMARCA2 in HeLa cells (%) for Cn1c(=O)n(C2CCC(=O)NC2=O)c2cc3c(cc21)C1(CCN(C2CC4(CCC(C#Cc5cc(-c6ccccc6O)nnc5N)CC4)C2)CC1)CO3 (centres unmarked)
Marked response: 100

Exam item: // fetch SMARCA2 (Homo sapiens) Degradation rate of SMARCA2 in HeLa cells (%) for Nc1nnc(-c2ccccc2O)cc1C#CC1CCC2(CC1)CC(N1CCN3c4ccc(C(=O)N[C@H]5CCC(=O)NC5=O)cc4OCC[C@H]3C1)C2 (some centres unmarked)
Marked response: 38

Exam item: // fetch SMARCA2 (Homo sapiens) Degradation rate of SMARCA2 in HeLa cells (%) for Cn1c(=O)n(C2CCC(=O)NC2=O)c2ccc3c(c21)OCC31CCN(C[C@H]2CC[C@H](n3cc(-c4cc(-c5ccccc5O)nnc4N)cn3)CC2)CC1 (some centres unmarked)
Marked response: 100

Exam item: // fetch SMARCA2 (Homo sapiens) Degradation rate of SMARCA2 in HeLa cells (%) for Nc1nnc(-c2ccccc2O)cc1C#CC1CCC2(CC1)CC(N1CCC3(CCc4cc(C(=O)N[C@H]5CCC(=O)NC5=O)c(F)cc4O3)CC1)C2 (some centres unmarked)
Marked response: 7

* * *

System: VCaP cells
Experiment: Inhibition of VCaP cell proliferation (WST-8)
Format: cell-based
Settings: Homo sapiens, 168 hours
READOUT_NAME: log10 IC50 (log10 of the value in nM)
Base-10 log of IC50, unit nM.

COMPOUND	log10 IC50
C[C@H]1CC2(CCN(c3ccc(N4CCC(CN5CC6(CCC7(CC6)COc6c7ccc7c6CN(C6CCC(=O)NC6=O)C7=O)C5)CC4)cc3)CC2)CN1c1ccc(C#N)c(Cl)c1 (stereo partly shown) [A-P-6]	-0.80
COc1cc(O[C@H]2C(C)(C)[C@H](NC(=O)c3ccc(N4CCC(CN5CCN6c7ccc(C(=O)N[C@H]8CCC(=O)NC8=O)cc7OC[C@@H]6C5)CC4)cc3)C2(C)C)ccc1C#N [A-P-67]	2.23
N#Cc1cc2c(cc1Cl)OC1(CCN(C(=O)c3ccc(N4CCC(CN5CCC6(CCc7cc(C(=O)N[C@H]8CCC(=O)NC8=O)c(F)cc7O6)CC5)CC4)cc3)CC1)CO2 [A-P-53]	3.12
N#Cc1ccc(O[C@H]2CC[C@H](NC(=O)c3ccc(N4CCC(N5CC6(CCC7(CC6)COc6c7ccc7c6CN(C6CCC(=O)NC6=O)C7=O)C5)CC4)nn3)CC2)cc1Cl (relative stereo) [A-P-1]	-1.59
COc1cc(O[C@H]2C(C)(C)[C@H](NC(=O)c3ccc(N4CCC(CN5CCC6(CCc7cc(C(=O)N[C@H]8CCC(=O)NC8=O)c(F)cc7O6)CC5)CC4)nc3)C2(C)C)ccc1C#N [A-P-33]	2.65

Exam item: Consider the compound shown here: COc1cc(O[C@H]2C(C)(C)[C@H](NC(=O)c3ccc(N4CCC(CN5CCC6(CC5)COc5c6ccc(C(=O)N[C@H]6CCC(=O)NC6=O)c5F)(OC)CC4)cc3)C2(C)C)ccc1C#N [A-P-86] What is its recorded log10 IC50?
Marked response: 3.25

Exam item: Consider the compound shown here: C[C@H]1CC2(CCN(c3ccc(C(=O)N4CCC(CN5CCC6(CCc7cc(C(=O)N[C@H]8CCC(=O)NC8=O)c(F)cc7O6)CC5)CC4)cc3)CC2)CN1c1ccc(C#N)c(Cl)c1 [A-P-35] What is its recorded log10 IC50?
Marked response: 0.60

Exam item: Consider the compound shown here: COc1cc(O[C@H]2C(C)(C)[C@H](NC(=O)c3ccc(N4CCC(C)(CN5CCC6(CCc7cc(C(=O)N[C@H]8CCC(=O)NC8=O)c(F)cc7O6)CC5)CC4)cn3)C2(C)C)ccc1C#N [A-P-43] What is its recorded log10 IC50?
Marked response: 3.19

* * *

Reported Degradation of AR protein in LNCaP cells, 100 nM (%) values are given for each entry in this list.
Molecular target: AR protein (Homo sapiens, UniProt P10275, T878A)
Construct: host or cells: LNCaP FGC
Assay: AR protein degradation in LNCaP cells (Western blot)
Type: cell-based
Conditions: 100 nM, 8 hours
Reply with just the number (in %).

Sample records with Degradation of AR protein in LNCaP cells, 100 nM (%):
COMPOUND	RECORDED_NUMBER
COc1cc(O[C@H]2C(C)(C)[C@H](NC(=O)c3ccc(N4CCC(CN5CCC6(CCc7cc(C(=O)N[C@H]8CCC(=O)NC8=O)c(F)cc7O6)CC5)CC4)nn3)C2(C)C)ccc1C#N	85
COc1cc(O[C@H]2CC[C@H](NC(=O)c3ccc(N4CCC(CN5CCC6(CC5)COc5cc7c(cc56)n(C)c(=O)n7C5CCC(=O)NC5=O)CC4)nn3)CC2)ccc1C#N (relative stereo)	-18
N#Cc1ccc(O[C@H]2CC[C@H](NC(=O)c3ccc(N4CCC(N5CCC6(CC5)CCC5(CC6)COc6c5ccc5c6CN(C6CCC(=O)NC6=O)C5=O)CC4)nn3)CC2)cc1Cl (relative stereo)	75
COc1cc(O[C@H]2C(C)(C)[C@H](NC(=O)c3ccc(N4CCC(F)(CN5CC6(CCC7(CC6)COc6c7ccc7c6CN(C6CCC(=O)NC6=O)C7=O)C5)CC4)cc3)C2(C)C)ccc1C#N (relative stereo)	62

We now examine a further compound.
Exam item: Consider the compound shown here: COc1cc(O[C@H]2C(C)(C)[C@H](NC(=O)c3ccc(N4CCC5(CC4)CC(N4CCC6(CCc7cc(C(=O)N[C@H]8CCC(=O)NC8=O)c(F)cc7O6)CC4)C5)cc3)C2(C)C)ccc1C#N What is its recorded Degradation of AR protein in LNCaP cells, 100 nM (%)?
Marked response: 63

* * *

Reported IC50 values are given for each entry in this list.
Tested on: LNCaP cells
Experiment: Inhibition of LNCaP cell proliferation (WST-8)
Type: cell-based
Settings: Homo sapiens, LNCaP FGC cells, 96 hours
Reply with just the number (in µM).

COMPOUND	ASSAY_SYSTEM	READOUT_NAME	RECORDED_NUMBER
C[C@H]1CC2(CCN(c3ccc(N4CCC(CN5CCC6(CC5)COc5ccc7c(c56)n(C)c(=O)n7C5CCC(=O)NC5=O)CC4)cc3)CC2)CN1c1ccc(C#N)c(Cl)c1 (stereo partly drawn)	LNCaP cells	IC50	4.91
N#Cc1cc2c(cc1Cl)OC1(CCN(C(=O)c3ccc(N4CCC(CN5CCC6(CCc7cc(C(=O)N[C@H]8CCC(=O)NC8=O)c(F)cc7O6)CC5)CC4)cc3)CC1)CO2	LNCaP cells	IC50	0.14

We now examine a further compound.
Exam item: Consider the compound shown here: COc1cc(O[C@H]2C(C)(C)[C@H](NC(=O)c3ccc(N4CCC(C)(CN5CCC6(CCc7cc(C(=O)N[C@H]8CCC(=O)NC8=O)c(F)cc7O6)CC5)CC4)nn3)C2(C)C)ccc1C#N What is its recorded IC50?
Marked response: 0.86

* * *

Molecular target: AR protein (Homo sapiens, UniProt P10275, T878A)
Construct: host or cells: LNCaP FGC
Sequence (P10275 1-920 T878A): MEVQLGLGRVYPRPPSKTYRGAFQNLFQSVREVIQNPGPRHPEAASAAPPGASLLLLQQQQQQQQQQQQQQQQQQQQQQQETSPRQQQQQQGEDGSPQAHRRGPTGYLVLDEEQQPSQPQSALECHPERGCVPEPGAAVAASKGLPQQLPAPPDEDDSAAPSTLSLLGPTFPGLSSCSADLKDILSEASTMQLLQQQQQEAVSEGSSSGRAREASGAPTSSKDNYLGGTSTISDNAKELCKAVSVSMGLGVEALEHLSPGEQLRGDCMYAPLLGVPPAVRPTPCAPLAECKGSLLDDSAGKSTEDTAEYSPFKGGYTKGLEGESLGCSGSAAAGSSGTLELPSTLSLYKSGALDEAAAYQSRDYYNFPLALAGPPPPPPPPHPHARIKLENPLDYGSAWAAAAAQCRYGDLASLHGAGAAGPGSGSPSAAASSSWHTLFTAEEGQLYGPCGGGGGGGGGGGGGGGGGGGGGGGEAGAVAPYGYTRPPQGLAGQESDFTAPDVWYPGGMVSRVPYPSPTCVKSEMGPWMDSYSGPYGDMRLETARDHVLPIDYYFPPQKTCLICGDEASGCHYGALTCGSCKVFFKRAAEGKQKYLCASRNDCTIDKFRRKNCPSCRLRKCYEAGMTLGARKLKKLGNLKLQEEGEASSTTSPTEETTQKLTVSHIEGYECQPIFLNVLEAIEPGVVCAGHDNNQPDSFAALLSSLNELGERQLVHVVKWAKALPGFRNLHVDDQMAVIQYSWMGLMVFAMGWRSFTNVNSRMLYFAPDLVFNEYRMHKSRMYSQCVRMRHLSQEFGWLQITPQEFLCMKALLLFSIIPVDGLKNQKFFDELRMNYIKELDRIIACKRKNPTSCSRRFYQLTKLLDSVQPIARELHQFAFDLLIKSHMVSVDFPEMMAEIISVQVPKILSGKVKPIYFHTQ
Experiment: AR protein degradation in LNCaP cells (Western blot)
Assay type: cell-based
Conditions: 100 nM, 8 hours
Reported percent AR protein degradation at a fixed concentration at 0.1 µM values are given for each entry in this list.
Reply with just the number (in %).

Sample records with percent AR protein degradation at a fixed concentration at 0.1 µM:
MOLECULE	ASSAY_SYSTEM	RECORDED_NUMBER
Cn1c(=O)n(C2CCC(=O)NC2=O)c2cc3c(cc21)C1(CCN(CC2CCN(c4ccc(C(=O)N[C@H]5CC[C@H](Oc6ccc(C#N)c(Cl)c6)CC5)nn4)CC2)CC1)CO3 (stereo partly drawn)	AR protein (Homo sapiens, UniProt P10275, T878A)	5
COc1cc(O[C@H]2C(C)(C)[C@H](NC(=O)c3ccc(N4CCC(C)(CN5CCC6(CCc7cc(C(=O)N[C@H]8CCC(=O)NC8=O)c(F)cc7O6)CC5)CC4)cc3)C2(C)C)ccc1C#N	AR protein (Homo sapiens, UniProt P10275, T878A)	71
N#Cc1cc2c(cc1Cl)OCC1(CCN(C(=O)c3ccc(N4CCC(CN5CCC6(CCc7cc(C(=O)N[C@H]8CCC(=O)NC8=O)c(F)cc7O6)CC5)CC4)cc3)CC1)O2	AR protein (Homo sapiens, UniProt P10275, T878A)	9
N#Cc1cc2c(cc1Cl)CC1(CCN(c3ccc(C(=O)N4CCC(CN5CCC6(CCc7cc(C(=O)N[C@H]8CCC(=O)NC8=O)c(F)cc7O6)CC5)CC4)cc3)CC1)CO2	AR protein (Homo sapiens, UniProt P10275, T878A)	12
COc1cc(O[C@H]2C(C)(C)[C@H](NC(=O)c3ccc(N4CCC(N5CC6(CCC7(CC6)COc6c7ccc7c6CN(C6CCC(=O)NC6=O)C7=O)C5)CC4)cc3)C2(C)C)ccc1C#N (stereo partly drawn)	AR protein (Homo sapiens, UniProt P10275, T878A)	43

Exam item: // fetch AR protein (Homo sapiens, UniProt P10275, T878A) percent AR protein degradation at a fixed concentration at 0.1 µM for COc1cc2c(cc1C(=O)N[C@H]1CCC(=O)NC1=O)C1(CCN(CC3CCN(c4ccc(N5CCC6(CC5)C[C@H](C)N(c5ccc(C#N)c(Cl)c5)C6)cc4)CC3)CC1)CO2
Marked response: 30

Exam item: // fetch AR protein (Homo sapiens, UniProt P10275, T878A) percent AR protein degradation at a fixed concentration at 0.1 µM for C[C@H]1CC2(CCN(c3ccc(C(=O)N4CCC(CN5CCN6c7ccc(C(=O)N[C@H]8CCC(=O)NC8=O)c(F)c7OC[C@H]6C5)CC4)cc3)CC2)CN1c1ccc(C#N)c(Cl)c1
Marked response: 72

Exam item: // fetch AR protein (Homo sapiens, UniProt P10275, T878A) percent AR protein degradation at a fixed concentration at 0.1 µM for COc1cc(O[C@H]2C(C)(C)[C@H](NC(=O)c3ccc(N4CCC(N5CCC6(CC5)COc5c6ccc6c5n(C)c(=O)n6C5CCC(=O)NC5=O)CC4)cc3)C2(C)C)ccc1C#N (stereo partly drawn)
Marked response: -27
